Experiment: NCI Yeast Anticancer Drug Screen. Data for the mgt1 strain (AID 153)
Details: S. cerevisiae mgt1 mutant growth inhibition; at 1.2 µM; active compounds read high
Procedure: Growth inhibition of yeast strains with defined genetic alterations is measured as a screen for potential anti-cancer activity. Selected strains with alterations in DNA damage repair or cell cycle control were exposed to compounds and growth inhibition was measured relative to vehicle treated controls. The strain used in this assay is mgt1
The panel holds about 79,000 compounds, 15% with a hit somewhere; the sample as a whole holds those more often.
measured-quantity: growth inhibition (%)
One number for each entry, in %.

Solved cases below.
- molecule: "C[Si](C)(C)CNC(=O)OCc1ccccc1"
  measured-quantity: "growth inhibition"
  units: "%"
  recorded-result: 7
- molecule: "O=C1OC(=O)C2CCCC3CCCC1C32 (stereo unspecified)"
  measured-quantity: "growth inhibition"
  units: "%"
  recorded-result: 34
- molecule: "CCS(=O)(=O)c1ccc(/C=C/C=N/NC(=S)NCC(C)C)cc1"
  measured-quantity: "growth inhibition"
  units: "%"
  recorded-result: -2
- molecule: "CC1=NN(c2cccc(Cl)c2)C(=O)C1"
  measured-quantity: "growth inhibition"
  units: "%"
  recorded-result: -21
- molecule: "CC(=O)[O][Bi]([c]1ccccc1)[c]1ccccc1"
  measured-quantity: "growth inhibition"
  units: "%"
  recorded-result: 28
- molecule: "CCCCN(CCCC)CCSc1ccc(Cl)cc1"
  measured-quantity: "growth inhibition"
  units: "%"
  recorded-result: -4

Below are some molecules; for each one, tell me its growth inhibition.
1. c1ccc2c(c1)c1ncccc1c1nccnc21
2. CC(C)c1ccccc1NC(=O)/C(Cl)=C(\Cl)C(=O)O
3. COc1ccc(/C=C/C(=O)C(C)(C)Br)cc1

1: -2; 2: 1; 3: 0

Below are some molecules; for each one, tell me its growth inhibition.
1. COc1ccc(OC)c2cc3ccccc3cc12
2. O=S(=O)(CCCl)c1ccccc1Cl

25
1

Below are some molecules; for each one, tell me its growth inhibition.
1. Cc1ccc(NN(NC(=O)OC(C)C)C(=O)OC(C)C)cc1
2. S=C(N/N=C(/c1ccccc1)c1ccccn1)N1CCCCCC1
3. C/C(=N\NC(=S)N1CCCCC1)c1cccc(C)n1
4. COc1cc2ccc(/C=C\[N+](=O)[O-])cc2cc1OC
5. CC(CC(C)(C)[N+](C)(C)C)[N+](C)(C)C (stereo unspecified)

1. 0
2. -5
3. 49
4. -18
5. -1

Below are some molecules; for each one, tell me its growth inhibition.
1. CC(/C=C/c1ccc(Cl)cc1)=N\NC(=S)NCC(C)C
2. C/C(=N/NC(=S)N1CCCCCC1)c1cccc(/C(C)=N\NC(=S)N2CCCCCC2)n1
3. COc1cc(C(=O)/C=C/c2ccccc2O)ccc1O
4. O=C(OCCN1CCCCCC1)C(c1ccsc1)C1CCCCC1 (stereo unspecified)

1: -6; 2: 23; 3: 9; 4: 8

Below are some molecules; for each one, tell me its growth inhibition.
1. Cn1c(=O)c2ccccc2c2ccccc21
2. N#Cc1c(N)[nH]c2ccc(Sc3ccccc3)cc12
3. c1ccc2c(c1)Oc1cccc3cccc-2c13
4. O=C1C(Nc2ccccc2)=C(Oc2ccccc2)C(=O)c2ccccc21

1: -1; 2: -1; 3: -1; 4: 5

Below are some molecules; for each one, tell me its growth inhibition.
1. FC(F)(F)c1cc(NC(=S)N2c3ccccc3-n3cccc3C2c2cccnc2)cc(C(F)(F)F)c1 (stereo unspecified)
2. Nc1nc(-c2cccnc2)cc(-c2cc(-c3cccnc3)nc(N)n2)n1

1: -10; 2: 2
